Assay: chemical genetic growth profiling, strain panel (AID 1159580);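 further: tested at 20 µM; growth read once vehicle control cultures reached saturation at 30 °C; 1 = growth at the plate median or of vehicle wells; lower values mean less growth of the strain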
Settings: S. cerevisiae deletion strains, growth OD, locus YOR083W, strain WHI5
Out of some 5,500 compounds screened, about 2,000 (36%) were called active. Not shown: some 18% with an inconclusive outcome. No stated cut-off is given here; in the data, active means normalized growth mostly below about 0.91 (no sharp cut-off); inconclusive means no clear call, values can overlap the other calls; inactive means mostly above about 0.92. The list shows a part of the results. Where a SMILES comes first, the peptide text is derived from it. Bridges are numbered along the chain shown (N, C = ends). [ ]: non-standard residue; d: D form. The star is where a group is joined. ξ: configuration not given here. ξDab(CH2SO3H) = NC(CCNCS(=O)(=O)O)C(=O)O; Heptanoyl(6-Me) = CC(C)CCCCC(=O)*; Dab = NCC[CH](N)C(=O)O
Outcome codes: Yes for active, No for inactive

compound	group
CCC(C)C1NC(=O)C(CCNCS(=O)(=O)O)NC(=O)C(NC(=O)C(CCNCS(=O)(=O)O)NC(=O)C(NC(=O)C(CCNCS(=O)(=O)O)NC(=O)CCCCC(C)C)C(C)O)CCNC(=O)C(C(C)O)NC(=O)C(CCNCS(=O)(=O)O)NC(=O)C(CCNCS(=O)(=O)O)NC(=O)C(C(C)CC)NC1=O (stereo not given) ({Heptanoyl(6-Me)}-[ξDab(CH2SO3H)]T[ξDab(CH2SO3H)][Dab][ξDab(CH2SO3H)]II[ξDab(CH2SO3H)][ξDab(CH2SO3H)]T; lactam 4-C; configuration not given here)	No
C#C[C@]1(OC(C)=O)CCC2C3CCC4=C/C(=N\O)CCC4C3CC[C@@]21CC (stereo not given in full)	Yes
C#C[C@]1(O)CCC2C3CCC4=CC(=O)CC[C@@H]4C3CC[C@@]21C (stereo not given in full)	No
Nc1ccc(S(=O)(=O)c2ccc(N)cc2)cc1	No
CC(C)(Sc1cc(C(C)(C)C)c(O)c(C(C)(C)C)c1)Sc1cc(C(C)(C)C)c(O)c(C(C)(C)C)c1	No

* * *

Experiment: chemical genetic growth profiling, strain panel (AID 1159580);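 further: tested at 20 µM; growth read once vehicle control cultures reached saturation at 30 °C; 1 = growth at the plate median or of vehicle wells; lower values mean less growth of the strain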
Settings: S. cerevisiae deletion strains, growth OD, locus YKL085W, strain MDH1
In all, about 5,500 compounds went through this assay and about 2,000 (36%) were called active. About 18% were inconclusive and are not listed. Cut-off read from the data, not from the text of the source: active = normalized growth mostly below about 0.91 (no sharp cut-off); inconclusive = no clear call, values can overlap the other calls; inactive = mostly above about 0.92. Some of the results follow.
Outcome codes: active, inactive

compound	group
CC(=O)NC(C(=O)O)C(C)(C)SN=O (stereo unspecified)	inactive
CCC(C)C(=O)O[C@H]1[C@H](O)C2C(CN3CC(C)CCC3[C@@]2(C)O)C2C[C@]34O[C@]5(O)C(OC(=O)C(C)(O)CC)CC[C@@]3(C)C5C(OC(C)=O)[C@@H](OC(C)=O)C4[C@@]21O (stereo partly specified)	inactive
NNc1nncc2ccccc12	inactive
CCC(C)C(NC)C(=O)O (stereo unspecified)	inactive
C[C@H]1[C@H](C)CC[C@]2(CO)CC[C@]3(C)C(=CCC4[C@@]5(C)CC[C@H](O)C(C)(C)C5CC[C@]43C)[C@H]12 (stereo partly specified)	inactive
CC1=CCC2C3(C)C1=CC(=O)OC3CC1C(C)(C)CC(O)C(O)C12C (stereo unspecified)	inactive
COc1cccc(OC)c1OCCNCC1COc2ccccc2O1 (stereo unspecified)	inactive
C[C@@H]1CC[C@]2(C(=O)O)CC[C@]3(C)C(=CCC4[C@@]5(C)CC[C@H](O)C(C)(C)C5CC[C@]43C)C2[C@H]1C (stereo partly specified)	active
O=C(O)/C=C1\CCCc2ccccc2C1O (stereo unspecified)	inactive
C[C@@H]1C(=O)O[C@H]2[C@H]1CC[C@@]1(C)C=CC(=O)[C@@]3(C)O[C@@]213	inactive
N#CC(O[C@@H]1O[C@H](CO[C@@H]2O[C@H](CO)[C@@H](O)[C@H](O)[C@H]2O)[C@@H](O)[C@H](O)[C@H]1O)c1ccccc1 (stereo partly specified)	inactive
C[C@@H]1CC[C@H]2[C@@H](C)C(=O)O[C@@H]3O[C@@]4(C)CC[C@@H]1[C@]32OO4	active
CC1(C)CC[C@]2(C(=O)O)CC[C@]3(C)C(=CCC4[C@@]5(C)CC[C@@H](O)C(C)(C)C5CC[C@]43C)C2C1 (stereo partly specified)	active
CC(=O)Nc1ccc(OCC(O)CNC(C)C)cc1 (stereo unspecified)	inactive
Nc1c2c(nc3ccccc13)CCCC2	inactive
CC1C(=O)OC2C1CCC1(C)C=CC(=O)C3(C)OC213 (stereo unspecified)	inactive

* * *

Assay: chemical genetic growth profiling, strain panel (AID 1159580);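 further: tested at 20 µM; growth read once vehicle control cultures reached saturation at 30 °C; 1 = growth at the plate median or of vehicle wells; lower values mean less growth of the strain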
Settings: S. cerevisiae deletion strains, growth OD, locus YAL030W, strain snc1, hits give low values
About 2,000 (36%) of roughly 5,500 compounds were called active. About 18% were inconclusive and are not listed. The list shows a part of the results. Where a SMILES comes first, the peptide text is derived from it. Bridges are numbered along the chain shown (N, C = ends). [ ]: non-standard residue; d: D form. The star is where a group is joined. ξ: configuration not given here. ξDab(CH2SO3H) = NC(CCNCS(=O)(=O)O)C(=O)O; Heptanoyl(6-Me) = CC(C)CCCCC(=O)*; Dab = NCC[CH](N)C(=O)O

compound	normalized growth
C#C[C@]1(O)CCC2C3CCC4=CC(=O)CC[C@@H]4C3CC[C@@]21CC (stereo partly drawn)	1
CC1(C)CC[C@]2(C(=O)O)CC[C@]3(C)C(=CCC4[C@@]5(C)CC[C@@H](O)C(C)(C)C5CC[C@]43C)C2C1 (stereo partly drawn)	1.03
CC(CC(=O)C1OC1(C)C)C1C(=O)CC2(C)C3=CCC4C(C)(C)C(OC5OCC(O)C(O)C5O)CCC45CC35C(O)CC12C (stereo not drawn)	1.04
N#CC(O[C@@H]1O[C@H](CO[C@@H]2O[C@H](CO)[C@@H](O)[C@H](O)[C@H]2O)[C@@H](O)[C@H](O)[C@H]1O)c1ccccc1 (stereo partly drawn)	0.986
C#C[C@]1(O)CCC2C3CCC4=C(CCC(=O)C4)C3CC[C@@]21C (stereo partly drawn)	0.987
OC(CCN1CCCC1)(c1ccccc1)C1CCCCC1 (stereo not drawn)	0.986
COC1=C[C@@H]2[C@@H]3Cc4ccc(OC)c(O)c4[C@]2(CCN3C)CC1=O	1
COc1ccc2[nH]cc(CCN)c2c1	0.995
NNC(=O)c1ccncc1	1.03
OC(CCN1CCCCC1)(c1ccccc1)C1CC2C=CC1C2 (stereo not drawn)	1.02
CCN1C[C@]2(OC(=O)c3ccccc3NC(C)=O)CCC(OC)[C@]34C1[C@H](CC23)[C@@]1(O)CC(OC)[C@H]2CC4C1(O)[C@H]2OC (stereo partly drawn)	0.977
Nc1c2ccccc2nc2ccccc12	0.566
CC1(C)CCC2(C(=O)O)CCC3(C)C(=CCC4C5(C)CCC(O)C(C)(C)C5C(O)CC43C)C2C1 (stereo not drawn)	1.03
Cc1cc(O)cc(=O)o1	0.993
CC(C)CCCC1(C)C=Cc2c(O)c3c(c(CCC(C)C)c2O1)OC12C(CC4CC1C(C)(C)OC2(CCC(C)C(=O)O)C4O)C3=O (stereo not drawn)	1
C[C@H]1[C@H](C)CC[C@]2(CO)CC[C@]3(C)C(=CCC4[C@@]5(C)CC[C@H](O)C(C)(C)C5CC[C@]43C)[C@H]12 (stereo partly drawn)	0.997
CCC(C)C1NC(=O)C(CCNCS(=O)(=O)O)NC(=O)C(NC(=O)C(CCNCS(=O)(=O)O)NC(=O)C(NC(=O)C(CCNCS(=O)(=O)O)NC(=O)CCCCC(C)C)C(C)O)CCNC(=O)C(C(C)O)NC(=O)C(CCNCS(=O)(=O)O)NC(=O)C(CCNCS(=O)(=O)O)NC(=O)C(C(C)CC)NC1=O (stereo not drawn) ({Heptanoyl(6-Me)}-[ξDab(CH2SO3H)]T[ξDab(CH2SO3H)][Dab][ξDab(CH2SO3H)]II[ξDab(CH2SO3H)][ξDab(CH2SO3H)]T; lactam 4-C; configuration not given here)	0.99
Cc1ccc(-c2cc(C(F)(F)F)nn2-c2ccc(S(N)(=O)=O)cc2)cc1	1.03
Nc1ccc(S(=O)(=O)Nc2cnc3ccccc3n2)cc1	1.02
NC(N)=N/N=C/c1c(Cl)cccc1Cl	0.981
CC(C)CC(N(C)C)C1(c2ccc(Cl)cc2)CCC1 (stereo not drawn)	1.01
OC(CCN1CCCCC1)(c1ccccc1)C1CCCCC1 (stereo not drawn)	0.97
CC(C)=CCCC1(C)C=Cc2c(O)c3c(c(CC=C(C)C)c2O1)OC12C(=CCCC1C(C)(C)O[C@@]2(C/C=C(\C)C(=O)O)C(=O)O)C3=O (stereo partly drawn)	0.915

* * *

Test: chemical genetic growth profiling, strain panel (AID 1159580);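 further: tested at 20 µM; growth read once vehicle control cultures reached saturation at 30 °C; 1 = growth at the plate median or of vehicle wells; lower values mean less growth of the strain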
Conditions: S. cerevisiae deletion strains, growth OD, locus YER015W, strain faa2, hits give low values
In all, about 5,500 compounds went through this assay and about 2,000 (36%) were called active. About 18% were inconclusive and are not listed. The list shows a part of the results.
Reported normalized growth values for a set of compounds

cpd_smiles	normalized growth
COc1cc(N)c(Cl)cc1C(=O)NC1CCN(Cc2ccccc2)CC1	1
COc1cc(C(=O)NCCCCCC(=O)O)cc(OC)c1OC	0.972
N=C(N)SCCN	1.01
COc1ccc2c(c1)c(CC(=O)O)c(C)n2C(=O)c1ccc(Cl)cc1	0.976
